Tested on: Hek293 (human embryonic kidney cell lines)
experimental protocol: CCK8 cytotoxicity assay, normal cells
Assay type: cell-based
condition parameters: Homo sapiens, HEK293, 60 h, read-out: IC50 Hek293
attribute measured: IC50

- COC1=C[C@@H]2[C@@H]3Cc4c(CN5CCCC5)cc(OC)c(OC(=O)Cc5ccc(Cl)cc5Cl)c4[C@]2(CCN3C)CC1=O [6d]: 3.46 µM
- COC1=C[C@@H]2[C@@H]3Cc4c(CN5CCCC5)cc(OC)c(OC(=O)Cc5cccc(Cl)c5)c4[C@]2(CCN3C)CC1=O [6e]: 16.6 µM
- COC1=C[C@@H]2[C@@H]3Cc4c(CN5CCCC5)cc(OC)c(OC(=O)Cc5ccccc5C)c4[C@]2(CCN3C)CC1=O [6f]: 10.1 µM
- COC1=C[C@@H]2[C@@H]3Cc4c(CN5CCCC5)cc(OC)c(OC(=O)Cc5ccc(Cl)c(Cl)c5)c4[C@]2(CCN3C)CC1=O [6g]: 4.71 µM
- COC1=C[C@@H]2[C@@H]3Cc4c(CN5CCCC5)cc(OC)c(OC(=O)Cc5ccc(Cl)cc5)c4[C@]2(CCN3C)CC1=O [6a]: 13 µM
- COC1=C[C@@H]2[C@@H]3Cc4c(CN5CCCC5)cc(OC)c(OC(=O)Cc5ccccc5Cl)c4[C@]2(CCN3C)CC1=O [6c]: 6.52 µM

* * *

Tested on: A549 (human lung adenocarcinoma cell lines)
experimental protocol: CCK8 cytotoxicity assay
Format: cell-based
condition parameters: Homo sapiens, A549, 60 h, read-out: growth inhibition ratio (mean ± SD)
Binary call on inhibition at 2.5 µM: Satisfied from 20% upward, Not satisfied beneath that.

• COC1=C[C@@H]2[C@@H]3Cc4c(CN5CCCC5)cc(OC)c(OC(=O)Cc5ccc(Cl)cc5Cl)c4[C@]2(CCN3C)CC1=O [6d] = Satisfied
• COC1=C[C@@H]2[C@@H]3Cc4c(CN5CCCC5)cc(OC)c(OC(=O)Cc5ccc(OC)cc5)c4[C@]2(CCN3C)CC1=O [6i] = Satisfied
• COC1=C[C@@H]2[C@@H]3Cc4c(CN5CCCC5)cc(OC)c(OC(=O)Cc5cccc(Cl)c5)c4[C@]2(CCN3C)CC1=O [6e] = Satisfied
• COC1=C[C@@H]2[C@@H]3Cc4c(CN5CCCC5)cc(OC)c(OC(=O)Cc5ccccc5OC)c4[C@]2(CCN3C)CC1=O [6k] = Not satisfied
• COC1=C[C@@H]2[C@@H]3Cc4c(CN5CCCC5)cc(OC)c(OC(=O)Cc5ccc(OC)c(OC)c5)c4[C@]2(CCN3C)CC1=O [6b] = Not satisfied
• COC1=C[C@@H]2[C@@H]3Cc4c(CN5CCCC5)cc(OC)c(OC(=O)Cc5ccccc5Cl)c4[C@]2(CCN3C)CC1=O [6c] = Not satisfied
• COC1=C[C@@H]2[C@@H]3Cc4c(CN5CCCC5)cc(OC)c(OC(=O)Cc5ccc(Cl)cc5)c4[C@]2(CCN3C)CC1=O [6a] = Not satisfied

* * *

System: A549 (human lung adenocarcinoma cell lines)
experimental protocol: CCK8 cytotoxicity assay
Format: cell-based
condition parameters: CCK8, 60 h, mean ± SD of three independent experiments; read-out: IC50 A549
attribute measured: IC50 (µM)

* N.N.[Cl][Pt][Cl] [Cisplatin, reference compound] | 14.3

* * *

Listed here are molecules together with their documented inhibition at 2.5 µM.
System: A549 (human lung adenocarcinoma cell lines)
experimental protocol: CCK8 cytotoxicity assay
Type: cell-based
condition parameters: Homo sapiens, A549, 60 h, read-out: growth inhibition ratio (mean ± SD)
attribute measured: inhibition at 2.5 µM

• COC1=C[C@@H]2[C@@H]3Cc4c(CN5CCCC5)cc(OC)c(OC(=O)Cc5ccc([N+](=O)[O-])cc5)c4[C@]2(CCN3C)CC1=O = 15.4%
• COC1=C[C@@H]2[C@@H]3Cc4c(CN5CCCC5)cc(OC)c(OC(=O)Cc5ccc(Cl)c(Cl)c5)c4[C@]2(CCN3C)CC1=O = 20.3%
• COC1=C[C@@H]2[C@@H]3Cc4c(CN5CCCC5)cc(OC)c(OC(=O)Cc5ccccc5)c4[C@]2(CCN3C)CC1=O = 20.6%
• COC1=C[C@@H]2[C@@H]3Cc4c(CN5CCCC5)cc(OC)c(OC(=O)Cc5ccccc5F)c4[C@]2(CCN3C)CC1=O = 13.2%
• COC1=C[C@@H]2[C@@H]3Cc4c(CN5CCCC5)cc(OC)c(OC(=O)Cc5ccccc5C)c4[C@]2(CCN3C)CC1=O = 25%

* * *

Tested on: SW480 (human colon adenocarcinoma cell lines)
experimental protocol: CCK8 cytotoxicity assay
Type: cell-based
condition parameters: CCK8, 60 h, mean ± SD of three independent experiments; read-out: IC50 SW480
pIC50: −log10 of the molar value.
attribute measured: pIC50

• N.N.[Cl][Pt][Cl] [Cisplatin, reference compound] = 5.70

* * *

Below: a set of entries, each annotated with reported IC50.
Tested on: MCF-7 (human breast cancer cell lines)
experimental protocol: CCK8 cytotoxicity assay
Assay type: cell-based
condition parameters: Homo sapiens, MCF7, 60 h, read-out: IC50 MCF-7
attribute measured: IC50 (µM)

* COC1=C[C@@H]2[C@@H]3Cc4c(CN5CCCC5)cc(OC)c(OC(=O)Cc5ccc(Cl)cc5)c4[C@]2(CCN3C)CC1=O | 14.3
* COC1=C[C@@H]2[C@@H]3Cc4c(CN5CCCC5)cc(OC)c(OC(=O)Cc5ccc(Cl)cc5Cl)c4[C@]2(CCN3C)CC1=O | 5.73
* COC1=C[C@@H]2[C@@H]3Cc4c(CN5CCCC5)cc(OC)c(OC(=O)Cc5cccc(Cl)c5)c4[C@]2(CCN3C)CC1=O | 14.9

* * *

Reported melting point values follow for various compounds
attribute measured: melting point

• COC1=C[C@@H]2[C@@H]3Cc4c(CN5CCCCC5)cc(OC)c(OC(=O)Cc5ccc(F)cc5)c4[C@]2(CCN3C)CC1=O = 128 to 130 °C
• COC1=C[C@@H]2[C@@H]3Cc4c(CN5CCCCC5)cc(OC)c(OC(=O)Cc5ccc(OC)c(OC)c5)c4[C@]2(CCN3C)CC1=O = 151 to 154 °C
• COC1=C[C@@H]2[C@@H]3Cc4c(CN5CCCC5)cc(OC)c(OC(=O)Cc5ccccc5F)c4[C@]2(CCN3C)CC1=O = 178 to 180 °C
• COC1=C[C@@H]2[C@@H]3Cc4c(CN5CCCC5)cc(OC)c(OC(=O)Cc5ccccc5OC)c4[C@]2(CCN3C)CC1=O = 180 to 182 °C
• COC1=C[C@@H]2[C@@H]3Cc4c(CN5CCCC5)cc(OC)c(OC(=O)Cc5cccc(Cl)c5)c4[C@]2(CCN3C)CC1=O = 68 to 72 °C
• COC1=C[C@@H]2[C@@H]3Cc4c(CN5CCCCC5)cc(OC)c(OC(=O)Cc5ccc(Cl)cc5)c4[C@]2(CCN3C)CC1=O = 105 to 107 °C
• COC1=C[C@@H]2[C@@H]3Cc4c(CN5CCCC5)cc(OC)c(OC(=O)Cc5ccc([N+](=O)[O-])cc5)c4[C@]2(CCN3C)CC1=O = 82 to 85 °C
• COC1=C[C@@H]2[C@@H]3Cc4c(CN5CCCC5)cc(OC)c(OC(=O)Cc5ccccc5)c4[C@]2(CCN3C)CC1=O = 165 to 168 °C
• COC1=C[C@@H]2[C@@H]3Cc4c(CN5CCCCC5)cc(OC)c(OC(=O)Cc5ccccc5)c4[C@]2(CCN3C)CC1=O = 192 to 194 °C
• COC1=C[C@@H]2[C@@H]3Cc4c(CN5CCCC5)cc(OC)c(OC(=O)Cc5ccc(OC)c(OC)c5)c4[C@]2(CCN3C)CC1=O = 80 to 83 °C
• COC1=C[C@@H]2[C@@H]3Cc4c(CN5CCCC5)cc(OC)c(OC(=O)Cc5ccccc5C)c4[C@]2(CCN3C)CC1=O = 72 to 75 °C
• COC1=C[C@@H]2[C@@H]3Cc4c(CN5CCCC5)cc(OC)c(OC(=O)Cc5ccc(Cl)c(Cl)c5)c4[C@]2(CCN3C)CC1=O = 160 to 164 °C
• COC1=C[C@@H]2[C@@H]3Cc4c(CN5CCCCC5)cc(OC)c(OC(=O)Cc5ccc(Cl)c(Cl)c5)c4[C@]2(CCN3C)CC1=O = 143 to 146 °C
• COC1=C[C@@H]2[C@@H]3Cc4c(CN5CCCC5)cc(OC)c(OC(=O)Cc5ccc(OC)cc5)c4[C@]2(CCN3C)CC1=O = 76 to 79 °C

* * *

Parameter inhibition at 2.5 µM: see the listing below.
System: Hek293 (human embryonic kidney cell lines)
experimental protocol: CCK8 cytotoxicity assay, normal cells
Assay type: cell-based
condition parameters: Homo sapiens, HEK293, 60 h, read-out: growth inhibition ratio (mean ± SD)
attribute measured: inhibition at 2.5 µM (%)

• COC1=C[C@@H]2[C@@H]3Cc4c(CN5CCCC5)cc(OC)c(OC(=O)Cc5ccc(OC)c(OC)c5)c4[C@]2(CCN3C)CC1=O = 0.66
• COC1=C[C@@H]2[C@@H]3Cc4c(CN5CCCC5)cc(OC)c(OC(=O)Cc5ccccc5C)c4[C@]2(CCN3C)CC1=O = 16.8
• COC1=C[C@@H]2[C@@H]3Cc4c(CN5CCCC5)cc(OC)c(OC(=O)Cc5ccc(Cl)cc5Cl)c4[C@]2(CCN3C)CC1=O = 42.6
• COC1=C[C@@H]2[C@@H]3Cc4c(CN5CCCC5)cc(OC)c(OC(=O)Cc5ccc([N+](=O)[O-])cc5)c4[C@]2(CCN3C)CC1=O = 20.5
• COC1=C[C@@H]2[C@@H]3Cc4c(CN5CCCC5)cc(OC)c(OC(=O)Cc5ccc(OC)cc5)c4[C@]2(CCN3C)CC1=O = 13.3
• COC1=C[C@@H]2[C@@H]3Cc4c(CN5CCCC5)cc(OC)c(OC(=O)Cc5ccccc5)c4[C@]2(CCN3C)CC1=O = 17.4
• COC1=C[C@@H]2[C@@H]3Cc4c(CN5CCCC5)cc(OC)c(OC(=O)Cc5ccccc5Cl)c4[C@]2(CCN3C)CC1=O = 13.8
